- System: Candida albicans
- EXPERIMENT_NOTES: Antimicrobial activity against Candida albicans ATCC 537Y after 48 hrs by two-fold broth microdilution method
- Format: functional
Below, each of the compounds is paired with its reported MIC90 value.
ASSAY_METRIC: MIC90

>>> observed_measurement("CCOc1ccc(C2=NN(C(C)=O)C(c3ccc([N+](=O)[O-])o3)O2)cc1 (stereo not drawn)")
"8.39 µM"
>>> observed_measurement("CCCOc1ccc(C(=O)N/N=C/c2ccc([N+](=O)[O-])o2)cc1")
"40.8 µM"
>>> observed_measurement("Cc1ccc(C(=O)N/N=C/c2ccc([N+](=O)[O-])o2)cc1")
"58.3 µM"
